Biological target: Sentrin-specific protease 8 (Homo sapiens);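 note: luminescence read-out of SENP8 inhibition, dose-response confirmation following an ultra-high-throughput screen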
Sequence (Q96LD8 whole entry): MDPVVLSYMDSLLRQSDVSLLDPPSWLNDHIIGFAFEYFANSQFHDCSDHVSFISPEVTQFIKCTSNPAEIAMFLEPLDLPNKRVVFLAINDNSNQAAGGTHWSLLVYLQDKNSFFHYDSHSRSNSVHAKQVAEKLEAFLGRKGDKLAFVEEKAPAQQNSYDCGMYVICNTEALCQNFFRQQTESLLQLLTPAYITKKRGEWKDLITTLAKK
Format: functional
Active and inactive are the calls of the source.
# maps each entry to its IC50
OBSERVED PROPERTY: IC50

INSERT INTO results (molecular_string, measured) VALUES
  ('COc1ccccc1NC(=O)CCSc1ccc(C)cc1', '37 µM (active)'),
  ('O=C(Nc1nc2ccccc2s1)c1ccc(Cl)s1', '1.56 µM (active)'),
  ('COC(=O)c1ccc(N=Nc2ccccc2)cc1', '20.2 µM (active)'),
  ('COc1cccc(NC(=O)C(S)=NC2CCCCC2)c1', '23 µM (active)');

---

Biological target: Vascular endothelial growth factor receptor 2 (Homo sapiens)
Sequence (P35968 whole entry): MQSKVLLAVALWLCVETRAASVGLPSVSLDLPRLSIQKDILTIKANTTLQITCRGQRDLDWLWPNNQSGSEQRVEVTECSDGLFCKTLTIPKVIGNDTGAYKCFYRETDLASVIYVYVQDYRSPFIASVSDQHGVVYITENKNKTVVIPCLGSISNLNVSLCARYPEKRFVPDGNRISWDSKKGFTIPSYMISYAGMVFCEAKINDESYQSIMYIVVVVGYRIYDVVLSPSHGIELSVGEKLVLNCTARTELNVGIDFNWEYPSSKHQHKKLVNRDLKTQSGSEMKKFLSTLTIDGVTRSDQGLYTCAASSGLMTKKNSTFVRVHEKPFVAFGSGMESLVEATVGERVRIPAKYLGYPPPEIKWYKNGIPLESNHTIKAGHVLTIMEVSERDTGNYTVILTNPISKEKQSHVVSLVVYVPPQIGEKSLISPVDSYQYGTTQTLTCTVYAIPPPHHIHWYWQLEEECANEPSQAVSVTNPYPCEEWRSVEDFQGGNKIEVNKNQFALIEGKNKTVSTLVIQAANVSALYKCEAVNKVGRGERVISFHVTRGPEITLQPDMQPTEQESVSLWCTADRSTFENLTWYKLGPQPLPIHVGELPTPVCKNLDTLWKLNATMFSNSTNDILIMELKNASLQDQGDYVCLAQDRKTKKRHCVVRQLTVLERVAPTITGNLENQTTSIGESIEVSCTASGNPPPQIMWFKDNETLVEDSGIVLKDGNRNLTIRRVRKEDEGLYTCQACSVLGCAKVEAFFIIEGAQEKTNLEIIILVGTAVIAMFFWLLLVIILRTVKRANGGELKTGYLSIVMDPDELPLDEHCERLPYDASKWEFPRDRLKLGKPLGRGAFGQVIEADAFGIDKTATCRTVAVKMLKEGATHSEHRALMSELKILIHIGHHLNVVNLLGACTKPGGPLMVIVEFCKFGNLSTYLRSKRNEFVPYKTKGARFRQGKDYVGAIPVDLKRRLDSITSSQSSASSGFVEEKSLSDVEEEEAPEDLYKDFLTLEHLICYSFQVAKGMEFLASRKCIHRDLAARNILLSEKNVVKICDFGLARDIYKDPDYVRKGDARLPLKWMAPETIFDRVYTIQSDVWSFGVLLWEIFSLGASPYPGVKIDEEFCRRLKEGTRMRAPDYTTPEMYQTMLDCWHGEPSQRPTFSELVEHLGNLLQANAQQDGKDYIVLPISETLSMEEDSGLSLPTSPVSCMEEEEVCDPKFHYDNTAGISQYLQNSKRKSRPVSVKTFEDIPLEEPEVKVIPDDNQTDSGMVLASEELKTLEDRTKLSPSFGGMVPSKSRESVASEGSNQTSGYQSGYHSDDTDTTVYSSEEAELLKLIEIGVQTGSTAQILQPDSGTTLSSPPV
Type: functional
The source made the active and inactive calls.
Outcomes: YES (active), NO (inactive)

INSERT INTO measurements (molecule, qualitative_label) VALUES
  ('Cc1nn(C)c2sc3c(=O)[nH]cnc3c12', 'NO'),
  ('Cc1ccc2nccc(NC(=O)Nc3cccc(C(F)(F)F)n3)c2c1', 'NO'),
  ('COc1cc2c(cc1F)C(c1ccccc1Cl)=Nc1c(n[nH]c1C)N2 [RG-1530]', 'YES'),
  ('CC(C)CC(CO)NC(=O)C=Cc1cnc(N)c2ccccc12 (centres undefined)', 'NO');
